# procedure text: NCI Yeast Anticancer Drug Screen. Data for the cln2 rad14 strain (AID 165);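 note: 0% = growth equal to vehicle treated cultures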
# settings: S. cerevisiae cln2 rad14 strain, at 5.0 µM (retest, dose inferred, filed as 0.5), active compounds read high
The panel holds about 79,000 compounds, 15% with a hit somewhere; the sample as a whole holds those more often.
Catalogue of compounds with associated growth inhibition
quantity: growth inhibition (%)

[
  {
    "compound": "OCc1c(-c2cccc3ccccc23)sc(-c2cccc3ccccc23)c1CO",
    "quantity": "growth inhibition",
    "experimental result": 63
  },
  {
    "compound": "O=C(CS)Nc1ccccc1",
    "quantity": "growth inhibition",
    "experimental result": 9
  },
  {
    "compound": "O=C1CSC(c2ccccc2O)N1c1ccc(-n2c(-c3ccccc3)nc3ccccc3c2=O)cc1 (stereo unspecified)",
    "quantity": "growth inhibition",
    "experimental result": 29
  },
  {
    "compound": "C[C@]12CC[C@H](O)CC1=CC[C@@H]1C2CC[C@]2(C)C(=O)N(N)C(=O)CC12 (stereo partly specified)",
    "quantity": "growth inhibition",
    "experimental result": 2
  },
  {
    "compound": "C=C1CC2(CCOc3ccccc32)OC1=O (stereo unspecified)",
    "quantity": "growth inhibition",
    "experimental result": 5
  },
  {
    "compound": "Cc1ccc(C)c(C(=O)CCN)c1",
    "quantity": "growth inhibition",
    "experimental result": 6
  },
  {
    "compound": "CCOC(=O)/C(=C\\c1ccc([N+](=O)[O-])cc1)C(C)=O",
    "quantity": "growth inhibition",
    "experimental result": 17
  },
  {
    "compound": "Cc1ccc(C)c(N(c2ccccc2[N+](=O)[O-])S(C)(=O)=O)c1",
    "quantity": "growth inhibition",
    "experimental result": 5
  },
  {
    "compound": "COC(=O)CCN1c2ccccc2Sc2ccccc21",
    "quantity": "growth inhibition",
    "experimental result": 31
  },
  {
    "compound": "C=C(CN1CCCC1)C(=O)c1ccc(OC)cc1",
    "quantity": "growth inhibition",
    "experimental result": 31
  },
  {
    "compound": "Cn1c(-c2ccc(/C=N/NC(=S)N/N=C/c3ccc(-c4c[n+]5ccsc5n4C)cc3)cc2)c[n+]2ccsc12",
    "quantity": "growth inhibition",
    "experimental result": 34
  }
]

* * *

# procedure text: NCI Yeast Anticancer Drug Screen. Data for the rad50 strain (AID 155);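 note: 0% = growth of vehicle-only cultures of the same strain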
# settings: S. cerevisiae rad50 strain growth inhibition; at 5.0 µM (retest, dose inferred, filed as 0.5); active compounds read high
Compounds without any hit were thinned out: in the full panel of roughly 79,000, 15% have a hit.

[
  {
    "compound": "COc1cccc(/C=C(\\NC(=O)c2ccccc2)c2nc3ccccc3s2)c1",
    "growth inhibition [%]": 64
  },
  {
    "compound": "CCCCCCCCCCN(CCCCCCCCCC)C1CC(OC2CC(O)(C(O)CO)Cc3c(O)c4c(c(O)c32)C(=O)c2c(OC)cccc2C4=O)OC(C)C1O (centres undefined)",
    "growth inhibition [%]": 15
  },
  {
    "compound": "CCN(CC)CCCCSc1ccc([N+](=O)[O-])cc1[N+](=O)[O-]",
    "growth inhibition [%]": 27
  },
  {
    "compound": "Nc1ccccc1C(=O)NCCc1c[nH]c2ccccc12",
    "growth inhibition [%]": 1
  },
  {
    "compound": "Cc1ccc2c(c1)nc1n2C(N)=Nc2ccccc2S1",
    "growth inhibition [%]": 14
  },
  {
    "compound": "CCC(C)(C)C(=O)OCC(=O)c1ccc(-c2ccccc2)cc1",
    "growth inhibition [%]": -15
  },
  {
    "compound": "CCCCN(CCCC)c1ccc2c(c1)C(O)c1ccccc1-2 (centres undefined)",
    "growth inhibition [%]": 6
  },
  {
    "compound": "CC1(C)C[C@H]2C=C(C=O)[C@]34C[C@]3(C(=O)OC4O)[C@H]2C1 (some centres undefined)",
    "growth inhibition [%]": 94
  },
  {
    "compound": "CCCCCCCCCc1cc(=O)[nH]c(=S)[nH]1",
    "growth inhibition [%]": 17
  },
  {
    "compound": "O=C(Nc1ccc(F)cc1)N1CCCCC1",
    "growth inhibition [%]": 41
  },
  {
    "compound": "O=C1NCCCNCCCNCCCNC(=O)c2cccc1n2",
    "growth inhibition [%]": 32
  },
  {
    "compound": "CCC1([N+](=O)[O-])COC(c2ccc3c(c2)OCO3)OC1 (centres undefined)",
    "growth inhibition [%]": -9
  },
  {
    "compound": "O=C1/C(=C\\c2ccc([N+](=O)[O-])o2)Oc2cc(O)ccc21",
    "growth inhibition [%]": 97
  },
  {
    "compound": "CCCCCCC[CH2][Sn]([CH2]CCCCCCC)([O]c1cccc2cccnc12)[O]c1cccc2cccnc12",
    "growth inhibition [%]": 21
  },
  {
    "compound": "NCc1ccc(O)c(O)c1O",
    "growth inhibition [%]": -2
  },
  {
    "compound": "C/C=C(\\C)C(=O)OC1C2C(C)=CC(=O)C(O)C2(C)C2C3(O)OCC24C1OC(=O)C(O)C4C(C)C3O (centres undefined)",
    "growth inhibition [%]": -2
  },
  {
    "compound": "COc1ccnc(-c2cc(OC)cc(/C(N)=N/O)n2)c1",
    "growth inhibition [%]": 2
  },
  {
    "compound": "O=C(N/C(=C\\c1cccc([N+](=O)[O-])c1)c1nc2ccccc2s1)c1ccccc1",
    "growth inhibition [%]": 36
  },
  {
    "compound": "O=C(Nc1ccc(Cl)cc1)Nc1nnc2nc(C(C(=O)/C=C/c3ccccc3)c3nc4nnc(NC(=O)Nc5ccc(Cl)cc5)n4[nH]c3=O)c(=O)[nH]n12",
    "growth inhibition [%]": -8
  },
  {
    "compound": "O=[N+]([O-])c1cc2[nH]cnc2c([N+](=O)[O-])c1NCc1ccccc1",
    "growth inhibition [%]": 0
  },
  {
    "compound": "O=[N+]([O-])/C(Cl)=C(\\Sc1ccccc1)C(Cl)=C(Cl)Cl",
    "growth inhibition [%]": 100
  },
  {
    "compound": "Cc1cc(Nc2ccc(O)c(CN3CCN(Cc4cc(Nc5cc(C)nc(N)n5)ccc4O)CC3)c2)nc(N)n1",
    "growth inhibition [%]": 8
  },
  {
    "compound": "Clc1nc(Cl)c(Cc2ccccc2)c(Cl)n1",
    "growth inhibition [%]": 43
  },
  {
    "compound": "O=C(O)CN(CCN1CC(=O)OC(=O)C1)CCN1CC(=O)OC(=O)C1",
    "growth inhibition [%]": 4
  },
  {
    "compound": "COc1cccc(/C=C/C(C)=O)c1OC",
    "growth inhibition [%]": 2
  },
  {
    "compound": "O=C1OC(OCC#CCOC2OC(=O)C(Cl)=C2Cl)C(Cl)=C1Cl (centres undefined)",
    "growth inhibition [%]": 37
  },
  {
    "compound": "COc1ccc([N+](=O)[O-])cc1NC(=O)Nc1ccc(C(=O)OCC(C)C)cc1",
    "growth inhibition [%]": 11
  },
  {
    "compound": "CCOC(=O)C1SC(=Nc2cccc(Cl)c2C)N=C1C (centres undefined)",
    "growth inhibition [%]": 22
  },
  {
    "compound": "N#C/C(=C1C=C/C(=N/O)c2ccccc2/1)c1ccc(Cl)cc1",
    "growth inhibition [%]": 11
  },
  {
    "compound": "CCOc1ccc2c(c1)n([O-])c1ccccc1[n+]2=O",
    "growth inhibition [%]": 88
  },
  {
    "compound": "COc1ccc2c(c1)C(Br)CCC(Br)C2=O (centres undefined)",
    "growth inhibition [%]": -20
  },
  {
    "compound": "COC1/C=C\\OC2(C)Oc3c(C)c(O)c4c(O)c(c5[nH]c(-c6ccccc6)nc5c4c3C2=O)NC(=O)/C(C)=C\\C=C\\C(C)C(O)C(C)C(O)C(C)C(OC(C)=O)C1C (centres undefined)",
    "growth inhibition [%]": 29
  },
  {
    "compound": "Cc1c2c(c(C)c3c1OC(C)(C)CC3)OC(C)(C)CC2",
    "growth inhibition [%]": -10
  },
  {
    "compound": "COC(=O)/C(C#N)=C/c1cc(OC)c(O)cc1Br",
    "growth inhibition [%]": 46
  },
  {
    "compound": "O=C(c1ccccc1)c1ccc(Br)cc1O",
    "growth inhibition [%]": -3
  },
  {
    "compound": "[Cl][Pt+2][Cl].[NH-]c1cc2ccccc2cc1[NH-]",
    "growth inhibition [%]": 2
  },
  {
    "compound": "CCCCCCCCCCCCCCNC(=O)CCC(NC(=O)c1ccc(N(C)Cc2cnc3nc(N)nc(N)c3n2)cc1)C(=O)NCCCCCCCCCCCCCC (centres undefined)",
    "growth inhibition [%]": 28
  },
  {
    "compound": "S=C(Nc1ccccc1)NC1CCCCCCCCC1",
    "growth inhibition [%]": -2
  },
  {
    "compound": "O=NNc1ncccc1OCc1ccccc1",
    "growth inhibition [%]": 9
  },
  {
    "compound": "COC1=CC(=O)C(O)=C/C1=C\\C=C\\c1ccccc1",
    "growth inhibition [%]": 67
  },
  {
    "compound": "Cc1ccc(C2(O)CCN(Cc3ccccc3)CC2)cc1",
    "growth inhibition [%]": 30
  },
  {
    "compound": "O=C1C(C(O)(C(F)(F)Cl)C(F)(F)Cl)CCCC1C(O)(C(F)(F)Cl)C(F)(F)Cl (centres undefined)",
    "growth inhibition [%]": 95
  },
  {
    "compound": "N#CSc1ccc(Nc2ccc(SC#N)cc2)cc1",
    "growth inhibition [%]": 98
  },
  {
    "compound": "CC(=O)N(N)c1ccccc1",
    "growth inhibition [%]": 8
  }
]
